experimental target: T1, Human SIRPαV2 (CAA71403.1), Extracellular Domain + His-Tag (human, UniProt P78324 31-373)
T1 construct: also called huSIRPαV2; hSIRPαV2; not shown: His-Tag
T1 sequence (P78324 other isoform, or with tags, fused parts or gaps): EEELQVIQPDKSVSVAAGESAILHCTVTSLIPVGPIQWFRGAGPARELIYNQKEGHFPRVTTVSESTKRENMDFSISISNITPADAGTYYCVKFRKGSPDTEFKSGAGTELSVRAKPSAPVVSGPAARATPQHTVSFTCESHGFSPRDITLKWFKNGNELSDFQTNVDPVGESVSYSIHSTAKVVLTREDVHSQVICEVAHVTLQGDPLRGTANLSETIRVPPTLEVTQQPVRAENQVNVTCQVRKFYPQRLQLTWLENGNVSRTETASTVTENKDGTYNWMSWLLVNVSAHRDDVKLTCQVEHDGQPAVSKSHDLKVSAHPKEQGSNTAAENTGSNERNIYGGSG
experiment notes: SPR, antibody captured on Protein A/G, ECD-His analyte, 1:1 fit
measured quantity: pKd
Please keep in mind that pKd is minus log10 of the molar concentration; only the number is needed.

Antibody E4 (antibody, human IgG1, kappa, L234A L235A, V domains shown) VH: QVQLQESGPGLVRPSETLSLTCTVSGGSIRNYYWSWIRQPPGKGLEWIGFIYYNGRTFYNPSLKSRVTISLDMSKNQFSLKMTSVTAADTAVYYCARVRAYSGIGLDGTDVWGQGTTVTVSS VL: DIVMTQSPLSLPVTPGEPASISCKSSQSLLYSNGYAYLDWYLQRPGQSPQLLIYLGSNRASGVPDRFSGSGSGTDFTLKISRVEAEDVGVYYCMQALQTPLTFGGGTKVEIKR
9.09
Antibody E19 (antibody, human IgG1, kappa, L234A L235A, V domains shown) VH: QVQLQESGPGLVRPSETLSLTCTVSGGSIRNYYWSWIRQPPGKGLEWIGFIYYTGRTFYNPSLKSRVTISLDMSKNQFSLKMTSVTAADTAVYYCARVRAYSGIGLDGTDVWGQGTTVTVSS VL: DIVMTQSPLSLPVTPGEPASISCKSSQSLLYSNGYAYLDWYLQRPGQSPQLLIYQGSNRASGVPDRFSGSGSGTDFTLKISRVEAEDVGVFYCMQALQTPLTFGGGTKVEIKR
9.01

Let's switch to this binder now.
Consider Antibody E14 (antibody, human IgG1, kappa, L234A L235A, V domains shown) VH: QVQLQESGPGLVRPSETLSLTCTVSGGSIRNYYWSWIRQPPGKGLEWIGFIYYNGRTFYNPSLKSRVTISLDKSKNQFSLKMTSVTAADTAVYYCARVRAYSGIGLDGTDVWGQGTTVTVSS VL: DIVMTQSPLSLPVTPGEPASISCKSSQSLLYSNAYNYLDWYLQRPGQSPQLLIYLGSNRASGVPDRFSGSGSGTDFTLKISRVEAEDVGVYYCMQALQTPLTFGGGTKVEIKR . Its measured pKd is 8.87
